# TARGET_OR_SYSTEM: alpha2C receptor (Homo sapiens)
# Construct: expressed in transfected cells; host or cells: NIH-3T3
# Sequence (P18825 1-462): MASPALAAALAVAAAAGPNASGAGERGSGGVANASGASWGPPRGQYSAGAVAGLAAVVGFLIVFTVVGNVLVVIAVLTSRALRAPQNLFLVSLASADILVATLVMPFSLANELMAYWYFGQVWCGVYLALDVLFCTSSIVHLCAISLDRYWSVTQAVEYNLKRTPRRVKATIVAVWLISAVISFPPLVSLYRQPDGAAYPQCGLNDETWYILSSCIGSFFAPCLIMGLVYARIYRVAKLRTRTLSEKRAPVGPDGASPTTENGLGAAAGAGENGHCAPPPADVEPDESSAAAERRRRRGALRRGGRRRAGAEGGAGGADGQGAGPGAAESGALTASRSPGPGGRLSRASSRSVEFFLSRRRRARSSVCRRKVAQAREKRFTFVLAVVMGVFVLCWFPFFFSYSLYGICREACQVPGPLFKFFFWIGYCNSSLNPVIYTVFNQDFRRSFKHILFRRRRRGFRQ
# ASSAY_PROTOCOL: RSAT assay, alpha 2C
# Assay type: cell-based
# DETAILS: RSAT; ratio of maximal effect to standard full agonist brimonidine (UK14304)
For each record, check the reported (rel. efficacy) Alpha 2C: if it is below 0.6 write y, else write n.

| COMPOUND | TARGET_OR_SYSTEM | CLASS |
| --- | --- | --- |
| Clc1ccc(Br)cc1CNC1=NCCO1 | alpha2C receptor (Homo sapiens) | n |
| Clc1cccc(CNC2=NCCS2)c1 | alpha2C receptor (Homo sapiens) | y |
| COc1c(C)cccc1CNC1=NCCS1 | alpha2C receptor (Homo sapiens) | n |
| Cc1cccc(CNC2=NCCO2)c1C | alpha2C receptor (Homo sapiens) | n |
| Clc1ccc(Br)c(CNC2=NCCS2)c1 | alpha2C receptor (Homo sapiens) | n |

Input line: Does this compound meet the criterion (rel. efficacy) Alpha 2C < 0.6? COc1c(Br)cccc1CNC1=NCCS1
Output line: n

Input line: Is (rel. efficacy) Alpha 2C strictly under 0.6 for the entry FC(F)(F)c1cccc(CNC2=NCCO2)c1Cl ?
Output line: n

Input line: (rel. efficacy) Alpha 2C strictly < 0.6 for this compound? Clc1cccc(CNC2=NCCS2)c1Br
Output line: n

Input line: Item Fc1c(Cl)cccc1CNC1=NCCO1 [drawing 19] : (rel. efficacy) Alpha 2C beneath 0.6, strictly?
Output line: n

Input line: Input Cc1cc(Cl)cc(CNC2=NCCS2)c1F ; condition: (rel. efficacy) Alpha 2C strictly below 0.6. Does it hold?
Output line: y
